Measured values drawn from ChEMBL document CHEMBL5042520 for this set.

- Protocol: Inhibition of SARS-CoV-2 3CL protease using DABCYL-KTSAVLQ-SGFRKME-EDANS as substrate preincubated with enzyme for 30 mins followed by substrate addition and measured after 1 hr by fluorescence spectrophotometry
- Parameters: species or system Severe acute respiratory syndrome coronavirus 2
Observable: pIC50
// scale note: pIC50 = -log10(conc_M); give the bare number

Compound: CC#CC(=O)N(c1ccc(C(C)(C)C)cc1)C(C(=O)NC1CCCCC1)c1cncc2ccccc12 (stereo not drawn)
pIC50: 5.30

Could you now consider this next compound?
State the recorded pIC50 for this entry: C=CS(=O)(=O)N(c1ccc(C(C)(C)C)cc1)C(C(=O)NCCc1cccc(OC)c1)c1cccnc1 (stereo not drawn)
6.62

* * *

- Test system: Severe acute respiratory syndrome coronavirus 2
- Protocol: Inhibition of SARS-CoV-2 3CL protease at 50 uM using DABCYL-KTSAVLQ-SGFRKME-EDANS as substrate preincubated with enzyme for 30 mins followed by substrate addition and measured after 1 hr by fluorescence spectrophotometry relative to control
- Cond: time 1.5 hrs
Observable: inhibition (%)
Numeric only. Scale: %

Would you please look over these solved cases?
Compound: CC#CC(=O)N(c1ccc(NC(C)=O)cc1)C(C(=O)NC1CCCCC1)c1cccnc1 (stereo unspecified)
Observable: inhibition
Unit Tag: %
Value: 23

Compound: CC#CC(=O)N(c1ccc(F)cc1)C(C(=O)NC1CCCCC1)c1cccnc1 (stereo unspecified)
Observable: inhibition
Unit Tag: %
Value: 65

Look up inhibition for this compound: CC(C)(C)c1ccc(N(C(=O)C2=CCCC2)C(C(=O)NC2CCCCC2)c2ccsc2)cc1 (stereo unspecified)
22

* * *

- Tested on: Severe acute respiratory syndrome coronavirus 2
- Protocol: Inhibition of SARS-CoV-2 3CL protease at 50 uM using DABCYL-KTSAVLQ-SGFRKME-EDANS as substrate preincubated with enzyme for 30 mins followed by substrate addition and measured after 1 hr by fluorescence spectrophotometry relative to control
- Cond: time 1.5 hrs
Reported inhibition values for a set of molecules

Consider the following illustrative entries.
Molecule: CC(C)(C)c1ccc(N(C(=O)C#CCO)C(C(=O)NC2CCCCC2)c2cccnc2)cc1 (configuration not stated)
Value: > 95%
//
Molecule: CC#CC(=O)N(c1ccc(C(C)(C)C)cc1)C(C(=O)NC1CCCCC1)c1cncc2ccccc12 (configuration not stated)
Value: > 95%
//
Molecule: C=CS(=O)(=O)N(c1ccc(C(C)(C)C)cc1)C(C(=O)NC1CCN(Cc2ccccc2)CC1)c1cccnc1 (configuration not stated)
Value: > 95%
//
Molecule: C=CS(=O)(=O)N(c1ccc(C(C)(C)C)cc1)C(C(=O)NCCc1cccc(Cl)c1)c1cccnc1 (configuration not stated)
Value: > 95%

Reported inhibition for Severe acute respiratory syndrome coronavirus 2, given CC(=O)N(c1ccc(C(C)(C)C)cc1)C(C(=O)NC(C)(C)C)c1cccnc1 (configuration not stated) ?
< 5%

Give inhibition (Severe acute respiratory syndrome coronavirus 2) of the following molecule: C=CS(=O)(=O)N(c1ccc(C(C)(C)C)cc1)C(C(=O)NCCCc1ccccc1)c1cccnc1 (configuration not stated)
> 95%

What value of inhibition on Severe acute respiratory syndrome coronavirus 2 does CC#CC(=O)N(Cc1ccccc1)C(C(=O)NC1CCCCC1)c1cccnc1 (configuration not stated) have?
< 5%

* * *

- Test system: Severe acute respiratory syndrome coronavirus 2
- Protocol: Inhibition of SARS-CoV-2 3CL protease at 50 uM using DABCYL-KTSAVLQ-SGFRKME-EDANS as substrate preincubated with enzyme for 30 mins followed by substrate addition and measured after 1 hr by fluorescence spectrophotometry relative to control
- Cond: time 1.5 hrs
Observable: inhibition

Molecule: CC(C)(C)c1ccc(N(C(=O)CCl)C(C(=O)NC2CCCCC2)c2cccnc2)cc1 (centres undefined)
inhibition: > 95%

Molecule: C=CS(=O)(=O)N(c1ccc(C(C)(C)C)cc1)C(C(=O)N[C@@H](C)c1ccccc1)c1cccnc1 (mixture of isomers; 14h)
inhibition: > 95%

Molecule: CC(C)(C)c1ccc(N(C(=O)C2=CCCC2)C(C(=O)NC2CCCCC2)c2cncc3ccccc23)cc1 (centres undefined)
inhibition: < 5%

Molecule: CC(C)(C)c1ccc(N(C(=O)CCl)C(C(=O)NC2CCCC2)c2cccnc2)cc1 (centres undefined)
inhibition: > 95%

Molecule: C=CS(=O)(=O)N(c1ccc(C(C)(C)C)cc1)C(C(=O)NCCc1cccc(OC)c1)c1cccnc1 (centres undefined)
inhibition: > 95%

# input molecule: Cc1cnc(C(C(=O)NC2CCCCC2)N(C(=O)CCl)c2ccc(C(C)(C)C)cc2)cn1 (centres undefined) ; wanted: its inhibition
> 95%

Any idea what inhibition was measured for CC(C)(C)c1ccc(N(CC#N)C(C(=O)NC2CCCCC2)c2cccnc2)cc1 (centres undefined) ?
< 5%

What does the record list as inhibition for CC(C)(C)c1ccc(N(C(=O)C2=CCCC2)C(C(=O)NC2CCCCC2)c2nc3ccccc3s2)cc1 (centres undefined) ?
< 5%

What value of inhibition has been recorded for this entry: CC(C)(C)c1ccc(N(C(=O)c2c[nH]cn2)C(C(=O)NC2CCCCC2)c2cccnc2)cc1 (centres undefined)
> 95%
